# System: rodent lifetime carcinogenesis bioassay, tumor incidence TD50
# ASSAY NAME: carcinogenic potency in animals, long-term in vivo studies, CPDB compilation (AID 1745844)
# RUN PARAMETERS: rat; strain Wistar; males; in drinking water; site: all sites; lesion: lymphosarcoma; dosed 87 weeks; study length 100 weeks
ASSAY ENDPOINT: TD50

**Query** // returns reported TD50 for input CC(=O)OC1CC(C)OC(C)O1 (stereo unspecified)
**Result** 29800 mg/kg/day

----------
# System: rodent lifetime carcinogenesis bioassay, tumor incidence TD50
# ASSAY NAME: carcinogenic potency in animals, long-term in vivo studies, CPDB compilation (AID 1745844)
# RUN PARAMETERS: mouse; strain B6C3F1; females; i.p.; site: lung; lesion: alveolar/bronchiolar adenoma + alveolar/bronchiolar carcinoma; dosed 43 weeks; study length 77 weeks
ASSAY ENDPOINT: TD50 (mg/kg/day)
Only the number, expressed in mg/kg/day, is required.

**Query** Look at this molecule and give its reported TD50. Nc1nc(=S)c2ncn([C@H]3C[C@H](O)[C@@H](CO)O3)c2[nH]1
**Result** 6.87

Taken from PubChem BioAssay AID1745844.
